experimental-target: KAT8 Full length enzyme (Homo sapiens (Human))
Sequence (Q9H7Z6 whole entry): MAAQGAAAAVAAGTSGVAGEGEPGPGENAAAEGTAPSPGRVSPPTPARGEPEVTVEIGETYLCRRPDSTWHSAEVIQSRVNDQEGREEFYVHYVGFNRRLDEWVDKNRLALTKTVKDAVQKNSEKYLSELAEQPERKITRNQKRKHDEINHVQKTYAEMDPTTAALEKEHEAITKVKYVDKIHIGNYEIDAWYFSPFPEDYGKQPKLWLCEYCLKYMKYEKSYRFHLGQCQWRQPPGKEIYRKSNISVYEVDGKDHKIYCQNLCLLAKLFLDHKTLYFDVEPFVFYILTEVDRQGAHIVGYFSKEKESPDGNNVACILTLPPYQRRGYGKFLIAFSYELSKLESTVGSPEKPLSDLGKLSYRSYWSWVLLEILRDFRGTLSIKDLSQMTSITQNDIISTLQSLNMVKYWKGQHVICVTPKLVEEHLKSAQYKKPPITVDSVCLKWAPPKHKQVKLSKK
procedure-summary: KAT8 assay (SAMDI-MS acetylation of H3 1-21 peptide)
Format: biochemical
applied-conditions: Morrison equation fit; replicate number in parentheses; read-out: KAT8 Ki (nM) (replicate number)
Flag rule - Ki less than 3000 nM flags y; the remaining entries get n.

compound | label
CCc1cc(Nc2cc3onc(NS(=O)(=O)c4cccc(Oc5ccc(F)cc5)c4)c3cc2OC)n[nH]1 [Example 128] | n
CCc1cc(Nc2cc3onc(NS(=O)(=O)c4cc(Cl)ccc4Cl)c3cc2OC)n[nH]1 [Example 134] | n
COc1cc2c(NS(=O)(=O)c3c(OC)cc(-c4cccn(C)c4=O)cc3OC)noc2cc1Nc1cc(C2CC2)n[nH]1 [Example 221] | y
COc1cc2c(NS(=O)(=O)c3c(OC)cccc3OC)noc2cc1Nc1ccn(C)n1 [Example 04] | y
COc1cc2c(NS(=O)(=O)c3c(OC)cc(-n4ncccc4=O)cc3OC)noc2cc1Nc1cc(C2CC2)n[nH]1 [Example 243] | y
